Kindly supply the reported protein stability index values for the records listed here.
# procedure.details: protein stability index of a GFP-peptide fusion (GPS, HEK-293T) (PSI 1-6); higher = more stable;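 also: 24-mer peptide tiles fused after GFP, lentivirally expressed, FACS-sorted into six equal bins by GFP/DsRed ratio, decoded by Illumina sequencing, PSI is the read-weighted mean bin number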
# measurement.conditions: treatment: MLN4924 1 uM, 8 h; c terminus: a fixed tail appended
The answer should be written as a number, with no unit following it.

What measured protein stability index goes with PSHLLLPPDTVSRTGLEKAAAGAV [SPDEF] ?
4.26

What measured protein stability index goes with APVANSYRGTLKRQPAFDTFDGSL [ETS2] ?
3.42

What measured protein stability index goes with FTMFLNLFGEKLSGTDAEETILNA [MYL5] ?
2.21

What measured protein stability index goes with QILYESCPKYKFISCPTCRRETVL [RNF208] ?
2.23

What measured protein stability index goes with MAAAEPSPRRVGFVGAGRMAGAIA [PYCR3] ?
3.38

What measured protein stability index goes with HYEFNLSRMKFRGNGALSNISDLP [LCOR] ?
2.76

* * *

Kindly supply the reported protein stability index values for the records listed here.
# procedure.details: protein stability index of a GFP-peptide fusion (GPS, HEK-293T) (PSI 1-6); higher = more stable
# measurement.conditions: treatment: MLN4924 1 uM, 8 h; c terminus: a fixed tail appended
The answer should be written as a number, with no unit following it.

What measured protein stability index goes with ESKLLRDLSAANEKNLLLQNQVDE [LRRC45] ?
5.15

What measured protein stability index goes with SSHEVKALGAMWKLHKSQLSQALN [TRIM9] ?
2.58

What measured protein stability index goes with QTESALSKKLRAILPKQSRKSMLD [LCOR] ?
3.14

What measured protein stability index goes with SVSLNKTARPFGAPPPADSAPQQN [PDLIM7] ?
4.46

What measured protein stability index goes with DREVDAATSATSHTRSLNSIIHQM [FBF1] ?
4.21

What measured protein stability index goes with ACFLVRGLLLRGAVDGILHMFTPK [SLC6A17] ?
2.83

What measured protein stability index goes with SKHLKEMYQELMEMCHKPDVELLQ [TRIM43] ?
2.7

What measured protein stability index goes with QVLRFYAIWDDTDSMYGECRTYII [EFHC1] ?
2.58

What measured protein stability index goes with LGIPKNPWLWSEQQVCQWLLWATN [ETS2] ?
2.33

What measured protein stability index goes with KLKLVALHKQVLMGPYNPDTCPEV [ACBD3] ?
2.72

What measured protein stability index goes with YVPEKVKKAEKKLEENPYDLDAWS [CSTF3] ?
3.26

What measured protein stability index goes with LKNKKGAKQQKFIKAVTHQVKFGQ [ZC3H15] ?
3.25

What measured protein stability index goes with MGSSQATMTSSQSMNFSMMSTNTV [CLINT1] ?
3.64

What measured protein stability index goes with LYSQLLQAYKWSNKLQYHAGLASG [MED27] ?
2.67

What measured protein stability index goes with RDVKKTGFVFGTTLIMLLSLAAFS [RTN3] ?
3.19

What measured protein stability index goes with NGTKADGKDAKTTNGHGGEAAEGK [TRIM29] ?
5.55

What measured protein stability index goes with HTSVVCYLLDYPNNLLSAPPPDVT [ANKRD17] ?
2.26

What measured protein stability index goes with IDGIQAIYGRSQNPVQPIGPQTPK [MMP1] ?
4.07

What measured protein stability index goes with CAKYTYPVCSALLDPVLQAPGTGP [FANCE] ?
2.26

What measured protein stability index goes with ENFDHNTLALILQIPTQNTQARQV [PPFIA4] ?
2.81

What measured protein stability index goes with ANLAASGGYAIAVVLLQGAELLLA [TSPAN10] ?
3.05

What measured protein stability index goes with WSKTQVLDWISYQVEKNKYDASAI [ELF3] ?
2.48

What measured protein stability index goes with TATMKDLEAEVKDTTRVENLIKSE [R3HDM1] ?
5.46

What measured protein stability index goes with DGLREQLQAPVPPDSVPSLQNMGL [PBXIP1] ?
4.4

What measured protein stability index goes with KVPSEAPSPMPTHRSYLGPGSTSP [SLC6A17] ?
4.71

What measured protein stability index goes with GQRGNTESKTDGDDTETVPSEQSH [TCF25] ?
5.54

What measured protein stability index goes with EDNEREGTENGAIDAVPVDENLFT [ZC3H15] ?
5.68

What measured protein stability index goes with TLSISDVRTLSEPPDKGEEQVNFC [ZBTB22] ?
5.09

What measured protein stability index goes with AIMRSPQMVSAIVRTMQNTNDVET [CTNNB1] ?
3.81

What measured protein stability index goes with LLSRNQLSTAASLGPSGLQNHGQH [LCOR] ?
3.46

What measured protein stability index goes with LSRKKRLELDDNLDTERPVQKRAR [TRIB3] ?
4.62

What measured protein stability index goes with SEEGQNGSSPKSKTKWTKEDGHRT [ADD1] ?
5.36

What measured protein stability index goes with WETIRSFKDEWTQLDMFYRNWALK [AASDHPPT] ?
2.08

What measured protein stability index goes with HLVPEPDRLEEQLPWLSLRALKFR [DNAAF3] ?
2.78

* * *

Kindly supply the reported protein stability index values for the records listed here.
# procedure.details: protein stability index of a GFP-peptide fusion (GPS, HEK-293T) (PSI 1-6); higher = more stable
# measurement.conditions: treatment: MLN4924 1 uM, 8 h; c terminus: a fixed tail appended
The answer should be written as a number, with no unit following it.

What measured protein stability index goes with TGVELAPRSAEPGYLVTKVVAVDR [PCDHGA10] ?
3.93

What measured protein stability index goes with HARNGLSLKEEHRAYDLLRAASEN [IKZF1] ?
4.03

What measured protein stability index goes with VELLLARKISVNAKDEDQWTALHF [RIPK4] ?
1.83

What measured protein stability index goes with MLSIFYFAIPVGSGLGYIAGSKVK [SPNS1] ?
3.05

What measured protein stability index goes with KMNFSTLRNIQGLFAPLKLQMEFK [POMP] ?
2.02

What measured protein stability index goes with SFQDNLHNRKKHLNGLQHLKAKKV [ZMAT5] ?
3.49

What measured protein stability index goes with ADGDGGGGQCCRRQDSPSPDFYKQ [PCDHGC5] ?
4.44

What measured protein stability index goes with AESDYSNNIMKCRSRYDGHRIWMY [LOXL2] ?
2.1

What measured protein stability index goes with TLKFYCLPDNYEIIDSSLEDITYV [USP39] ?
2.29

What measured protein stability index goes with RTTVHDKSAHQTHSSWTPPNAQYW [DNAJC4] ?
3.02

What measured protein stability index goes with KWKVGIPSDPLVSIGALISKAHLE [ALDH8A1] ?
2.74

What measured protein stability index goes with PGNLEKNRYGDVPCLDQTRVKLTK [PTPN9] ?
4.32

What measured protein stability index goes with PRFHMACPTFRVSIARLEMGPDEY [FBXO3] ?
2.72

What measured protein stability index goes with YYEMGIHCWDVAGAGIIVTEAGGV [IMPA1] ?
2.03

What measured protein stability index goes with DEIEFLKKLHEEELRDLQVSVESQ [PRPH] ?
4.07

What measured protein stability index goes with SKLKMLERKGWLAPSPGVKEQAIW [PKD2L1] ?
2.54

What measured protein stability index goes with GTHPEDHQGHSDQHHHHHHHHHGR [RHOBTB2] ?
5.01

* * *

# procedure.details: protein stability index of a GFP-peptide fusion (GPS, HEK-293T) (PSI 1-6); higher = more stable
# measurement.conditions: treatment: DMSO; c terminus: a fixed tail appended
Kindly supply the reported protein stability index values for the records listed here.
The answer should be written as a number, with no unit following it.

What measured protein stability index goes with IQRIDENVLGAQLDVEAAHSEILK [STX5] ?
4.15

What measured protein stability index goes with KKKPGTAMCVGCGSQIHDQFILRV [ISL2] ?
2.36

What measured protein stability index goes with LEEENKERAKREMVMYSITVAFWL [MFF] ?
2.29

What measured protein stability index goes with LGDTQFCFRFRQSSGRRVSLHCLL [DENND6A] ?
2.89

What measured protein stability index goes with REDILSCYDVYSPDKEEQLPFGPF [PKD2L1] ?
4.09

* * *

# procedure.details: protein stability index of a GFP-peptide fusion (GPS, HEK-293T) (PSI 1-6); higher = more stable
# measurement.conditions: treatment: MLN4924 1 uM, 8 h; c terminus: a fixed tail appended
Kindly supply the reported protein stability index values for the records listed here.
The answer should be written as a number, with no unit following it.

What measured protein stability index goes with KWTACSRSCGGGVTSQERHCLQQR [ADAMTSL2] ?
3.37

What measured protein stability index goes with HYRELLDSLPMDAYTHGCILHPEL [GDAP1] ?
2.43

What measured protein stability index goes with VKMALDIEIATYRKLLEGEESRIS [PRPH] ?
2.7

What measured protein stability index goes with KEAVTGSRLGQGIGPIHLNEIQCT [LOXL2] ?
3.93

What measured protein stability index goes with NSQNEVNGWTCLHWACKRNHGQVV [ANKRD40] ?
2.65
